measured_target: Ba/F3 EGFR Del19/T790M mutants (Homo sapiens, UniProt P00533, T790M, cells depend on it, form not given)
Sequence (P00533 with tags, fused parts or gaps DEL746-750/T790M, form open): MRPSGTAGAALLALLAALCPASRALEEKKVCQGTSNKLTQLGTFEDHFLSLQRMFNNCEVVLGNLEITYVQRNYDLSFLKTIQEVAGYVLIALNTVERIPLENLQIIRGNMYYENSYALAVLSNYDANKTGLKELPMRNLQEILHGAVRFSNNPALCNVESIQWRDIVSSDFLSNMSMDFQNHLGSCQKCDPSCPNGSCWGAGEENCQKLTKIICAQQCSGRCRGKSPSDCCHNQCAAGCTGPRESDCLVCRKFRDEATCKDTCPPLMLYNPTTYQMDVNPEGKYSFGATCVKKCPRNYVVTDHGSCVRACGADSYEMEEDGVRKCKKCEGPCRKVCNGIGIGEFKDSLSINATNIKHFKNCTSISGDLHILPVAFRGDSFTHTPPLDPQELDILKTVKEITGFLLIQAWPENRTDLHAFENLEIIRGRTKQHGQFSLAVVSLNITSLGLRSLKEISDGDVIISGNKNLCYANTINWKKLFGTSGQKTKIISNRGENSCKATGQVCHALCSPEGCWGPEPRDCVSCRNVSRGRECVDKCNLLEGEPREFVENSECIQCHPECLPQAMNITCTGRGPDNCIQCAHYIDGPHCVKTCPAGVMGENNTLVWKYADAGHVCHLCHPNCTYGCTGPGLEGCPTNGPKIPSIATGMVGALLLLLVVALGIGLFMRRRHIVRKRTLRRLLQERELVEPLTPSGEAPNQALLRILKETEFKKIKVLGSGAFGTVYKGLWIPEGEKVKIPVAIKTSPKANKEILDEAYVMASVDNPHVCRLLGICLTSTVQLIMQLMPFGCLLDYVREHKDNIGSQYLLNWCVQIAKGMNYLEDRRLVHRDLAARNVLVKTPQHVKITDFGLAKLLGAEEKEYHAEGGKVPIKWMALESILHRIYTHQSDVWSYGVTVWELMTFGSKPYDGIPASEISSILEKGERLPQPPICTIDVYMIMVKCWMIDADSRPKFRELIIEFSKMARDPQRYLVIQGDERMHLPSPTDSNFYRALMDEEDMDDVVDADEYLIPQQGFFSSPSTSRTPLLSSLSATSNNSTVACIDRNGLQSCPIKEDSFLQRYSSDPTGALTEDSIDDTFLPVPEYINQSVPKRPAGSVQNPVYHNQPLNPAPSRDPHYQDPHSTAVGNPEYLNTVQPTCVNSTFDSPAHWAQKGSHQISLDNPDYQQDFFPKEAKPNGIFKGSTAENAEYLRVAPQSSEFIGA
test_protocol: CellTiter-Glo cell viability, Ba/F3 EGFR Del19/T790M cells
Format: cell-based, murine
experimental_setup: 72 hours, read-out: Ba/F3 EGFR mutant cell (IC50, nM) D/T
Protocol: In order to evaluate an inhibitory ability on wild-type Ba/F3 EGFR and Ba/F3 EGFR mutations in Ba/F3 cell lines by the compounds of Formula 1, the experiment was carried out as described below. The measurement of activities on Ba/F3 cells harboring wild-type EGFR and EGFR mutants by the compounds of the present invention were determined utilizing the CELLTITER-GLO™ system from Promega, as follows. […]
Quick reference for GI50 among some molecules

Worked examples, 3 molecules total:
>  <molecule_smiles>
CCc1cc(Nc2ncc(Cl)c(Nc3ccc4nccnc4c3N(C)S(C)(=O)=O)n2)c(OC)cc1N1CC2(C1)CN(C(C)C)C2

>  <GI50>
25 nM

$$$$
>  <molecule_smiles>
COc1cc(N2CCC(N3CCN(C)CC3)CC2)c(C)cc1Nc1ncc(Br)c(Nc2ccc3nccnc3c2NS(C)(=O)=O)n1

>  <GI50>
3 nM

$$$$
>  <molecule_smiles>
COc1cc(N2CCC(N3CCN(C)C4(CC4)C3)CC2)ccc1Nc1ncc(Cl)c(Nc2ccc3nccnc3c2NS(C)(=O)=O)n1

>  <GI50>
156 nM

$$$$

Below: the item to evaluate.
Form field GI50, entry COc1cc(C2CCN(C(C)=O)CC2)ccc1Nc1ncc(Cl)c(Nc2ccc3nccnc3c2NS(C)(=O)=O)n1 : 424 nM

###

measured_target: Ba/F3 EGFR L858R/T790M/C797S mutants (Homo sapiens, UniProt P00533, T790M/C797S/L858R, cells depend on it)
Sequence (P00533 whole entry T790M/C797S/L858R): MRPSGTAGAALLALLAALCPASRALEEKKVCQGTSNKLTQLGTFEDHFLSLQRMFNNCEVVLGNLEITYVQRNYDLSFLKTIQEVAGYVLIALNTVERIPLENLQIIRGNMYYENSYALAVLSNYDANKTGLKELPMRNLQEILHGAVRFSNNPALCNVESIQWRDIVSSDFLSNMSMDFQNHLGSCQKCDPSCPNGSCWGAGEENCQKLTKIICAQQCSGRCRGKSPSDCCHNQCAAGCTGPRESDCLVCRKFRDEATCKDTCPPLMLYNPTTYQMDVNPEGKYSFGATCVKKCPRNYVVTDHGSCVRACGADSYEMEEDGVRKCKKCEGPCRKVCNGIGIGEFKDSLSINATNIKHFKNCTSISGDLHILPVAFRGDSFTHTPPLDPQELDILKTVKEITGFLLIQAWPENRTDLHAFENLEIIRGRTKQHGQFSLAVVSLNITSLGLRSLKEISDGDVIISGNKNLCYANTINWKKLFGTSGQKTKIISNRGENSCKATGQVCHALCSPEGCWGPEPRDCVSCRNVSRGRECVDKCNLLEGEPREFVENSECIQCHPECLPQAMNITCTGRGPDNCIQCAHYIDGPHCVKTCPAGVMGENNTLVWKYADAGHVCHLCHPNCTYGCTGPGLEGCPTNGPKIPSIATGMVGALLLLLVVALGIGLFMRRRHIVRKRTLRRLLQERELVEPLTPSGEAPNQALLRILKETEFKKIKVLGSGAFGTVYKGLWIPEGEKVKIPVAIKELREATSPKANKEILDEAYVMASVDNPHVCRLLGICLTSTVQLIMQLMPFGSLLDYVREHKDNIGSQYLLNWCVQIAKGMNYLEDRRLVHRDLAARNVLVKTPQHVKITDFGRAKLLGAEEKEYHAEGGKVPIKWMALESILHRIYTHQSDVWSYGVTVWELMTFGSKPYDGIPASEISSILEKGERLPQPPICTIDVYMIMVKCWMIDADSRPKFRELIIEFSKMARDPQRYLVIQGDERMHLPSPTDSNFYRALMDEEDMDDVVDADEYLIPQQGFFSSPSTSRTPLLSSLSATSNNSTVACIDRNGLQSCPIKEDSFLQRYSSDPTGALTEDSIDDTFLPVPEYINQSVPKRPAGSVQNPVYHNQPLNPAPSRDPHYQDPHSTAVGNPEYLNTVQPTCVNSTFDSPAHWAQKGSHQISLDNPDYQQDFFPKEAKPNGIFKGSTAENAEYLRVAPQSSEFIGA
test_protocol: CellTiter-Glo cell viability, Ba/F3 EGFR L858R/T790M/C797S cells
Format: cell-based, murine
experimental_setup: 72 hours, read-out: Ba/F3 EGFR mutant cell (IC50, nM) L/T/C
result_type: GI50

Here is how some compounds turned out for GI50.
>  <compound>
CCc1cc(Nc2ncc(Br)c(Nc3ccc4nccnc4c3N(C)S(C)(=O)=O)n2)c(OC)cc1N1CCC(N(C)C)CC1

>  <GI50>
23 nM

$$$$
>  <compound>
CCc1cc(Nc2ncc(Br)c(Nc3cccc(OC)c3N(C)S(C)(=O)=O)n2)c(OC)cc1N1CCC(N2CCN(C)CC2)CC1 [Example C7]

>  <GI50>
24 nM

$$$$
>  <compound>
COc1cc(N2CCC(N3CCCC3)CC2)c(C)cc1Nc1ncc(Cl)c(Nc2ccc3c(c2NS(C)(=O)=O)OCCO3)n1

>  <GI50>
48 nM

$$$$

Sure, the documented GI50 for CCS(=O)(=O)Nc1c(Nc2nc(Nc3cc(C)c(N4CCC(N5CCN(C)CC5)CC4)cc3OC)ncc2Cl)cccc1OC is 34 nM

The value of GI50 measured for the compound COc1cc(N2CCN([C@@H]3CCN(C)C[C@@H]3F)CC2)ccc1Nc1ncc(Cl)c(Nc2ccc3nccnc3c2NS(C)(=O)=O)n1 turned out to be 485 nM

Short answer for COc1ccc(Nc2nc(Nc3cc(C)c(N4CCC(N(C)C)CC4)cc3OC)ncc2Cl)c(NS(C)(=O)=O)c1 : GI50 was 38 nM

So for COc1cc(N2CCC(N(C)C)CC2)c(C)cc1Nc1ncc(Cl)c(Nc2ccc3nccnc3c2NS(C)(=O)=O)n1 , the logged GI50 turned out to be 9 nM

Entry CC(C)Oc1cc(C2CCNCC2)ccc1Nc1ncc(Cl)c(Nc2ccc3nccnc3c2NS(C)(=O)=O)n1 — recorded GI50 = > 2000 nM

GI50 measured on COc1cc(N2CCC(N3CCN(C)CC3)CC2)c(C2CC2)cc1Nc1ncc(Cl)c(Nc2ccc3nccnc3c2NS(C)(=O)=O)n1 = 69 nM

Entry CCS(=O)(=O)Nc1c(Nc2nc(Nc3cc(C)c(N4CCC(N5CCN(C)CC5)CC4)cc3OC)ncc2Cl)ccc2nccnc12 , GI50 reported as 34 nM

###

measured_target: Ba/F3 EGFR Del19/T790M/C797S mutants (Homo sapiens, UniProt P00533, T790M/C797S, cells depend on it, form not given)
Sequence (P00533 with tags, fused parts or gaps DEL746-750/T790M/C797S, form open): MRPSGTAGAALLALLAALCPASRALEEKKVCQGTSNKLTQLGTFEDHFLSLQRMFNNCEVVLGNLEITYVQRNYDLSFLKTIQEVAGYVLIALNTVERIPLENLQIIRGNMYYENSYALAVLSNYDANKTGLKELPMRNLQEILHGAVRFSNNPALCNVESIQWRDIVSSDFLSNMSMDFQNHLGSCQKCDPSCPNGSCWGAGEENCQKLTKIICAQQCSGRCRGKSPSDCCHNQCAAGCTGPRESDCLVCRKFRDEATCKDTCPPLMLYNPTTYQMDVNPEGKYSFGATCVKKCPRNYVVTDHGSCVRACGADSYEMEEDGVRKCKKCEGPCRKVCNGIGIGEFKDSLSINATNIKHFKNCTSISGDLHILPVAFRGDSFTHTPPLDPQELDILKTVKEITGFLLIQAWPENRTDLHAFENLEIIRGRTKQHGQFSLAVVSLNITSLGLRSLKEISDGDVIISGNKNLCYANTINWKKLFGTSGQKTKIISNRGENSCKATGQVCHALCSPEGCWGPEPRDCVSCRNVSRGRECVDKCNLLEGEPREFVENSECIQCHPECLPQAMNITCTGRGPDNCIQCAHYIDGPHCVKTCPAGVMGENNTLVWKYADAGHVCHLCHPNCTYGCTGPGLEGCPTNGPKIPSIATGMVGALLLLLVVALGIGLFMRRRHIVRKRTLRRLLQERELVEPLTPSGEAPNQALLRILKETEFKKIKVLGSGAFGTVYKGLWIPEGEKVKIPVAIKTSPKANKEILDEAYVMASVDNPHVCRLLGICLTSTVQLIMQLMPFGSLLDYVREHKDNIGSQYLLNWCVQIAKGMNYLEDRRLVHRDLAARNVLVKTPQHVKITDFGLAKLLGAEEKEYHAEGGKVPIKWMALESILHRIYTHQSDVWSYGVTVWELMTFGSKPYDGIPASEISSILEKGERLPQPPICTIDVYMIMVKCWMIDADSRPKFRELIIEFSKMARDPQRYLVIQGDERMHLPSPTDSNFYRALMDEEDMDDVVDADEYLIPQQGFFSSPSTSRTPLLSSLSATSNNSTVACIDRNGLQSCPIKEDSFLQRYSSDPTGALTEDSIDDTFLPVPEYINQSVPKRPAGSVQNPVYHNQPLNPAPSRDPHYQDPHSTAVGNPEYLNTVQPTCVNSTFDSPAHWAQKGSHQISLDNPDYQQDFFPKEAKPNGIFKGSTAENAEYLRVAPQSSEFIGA
test_protocol: CellTiter-Glo cell viability, Ba/F3 EGFR Del19/T790M/C797S cells
Format: cell-based, murine
experimental_setup: 72 hours, read-out: Ba/F3 EGFR mutant cell (IC50, nM) D/T/C
Each entry below carries its reported GI50.
Please reply with the bare figure in nM and do not write the unit itself.

Known GI50 results, listed for orientation:
>  <molecule_smiles>
CCc1cc(Nc2ncc(Cl)c(Nc3ccc4nccnc4c3NS(C)(=O)=O)n2)c(OC)cc1N1CC2(C1)CN(C(C)C)C2

>  <unit_descriptor>
nM

>  <GI50>
9

$$$$
>  <molecule_smiles>
COc1cc(N2CCC(N3CCN(CC(F)F)CC3)CC2)ccc1Nc1ncc(Cl)c(Nc2ccc3nccnc3c2NS(C)(=O)=O)n1

>  <unit_descriptor>
nM

>  <GI50>
205

$$$$
>  <molecule_smiles>
CCc1cc(Nc2ncc(Br)c(Nc3ccc4nccnc4c3NS(C)(=O)=O)n2)c(OC)cc1N1CCC(N(C)C)CC1

>  <unit_descriptor>
nM

>  <GI50>
7

$$$$
>  <molecule_smiles>
COc1cc(N2CCC(N3CCN(C)CC3)CC2)c(C)cc1Nc1ncc(Br)c(Nc2cccc(OC)c2N(C)S(C)(=O)=O)n1

>  <unit_descriptor>
nM

>  <GI50>
13

$$$$
>  <molecule_smiles>
COc1cc(C2CCNCC2)ccc1Nc1ncc(Cl)c(Nc2ccc3nccnc3c2NC(C)=O)n1

>  <unit_descriptor>
nM

>  <GI50>
717

$$$$

GET /value?item= COc1cc(N2CCC(N(C)C)CC2)c(C)cc1Nc1ncc(Br)c(Nc2ccc3nccnc3c2NS(C)(=O)=O)n1 &field=GI50 returns 7

Notebook: CCc1cc(Nc2ncc(Br)c(Nc3ccc4nccnc4c3N(C)S(C)(=O)=O)n2)c(OC)cc1N1CC2(CCN2C(C)C)C1 , GI50 read as 6

###

measured_target: Ba/F3 EGFR Del19/T790M/C797S mutants (Homo sapiens, UniProt P00533, T790M/C797S, cells depend on it, form not given)
test_protocol: CellTiter-Glo cell viability, Ba/F3 EGFR Del19/T790M/C797S cells
Type: cell-based, murine
experimental_setup: 72 hours, read-out: Ba/F3 EGFR mutant cell (IC50, nM) D/T/C
GI50 reference
Write the answer as a number in nM, unit excluded.

Worked examples, 2 molecules total:
>  <molecule>
CCc1cc(Nc2ncc(Cl)c(Nc3ccc4nccnc4c3NS(C)(=O)=O)n2)c(OC)cc1N1CCC(N2CCN(C)CC2)CC1

>  <unit_descriptor>
nM

>  <GI50>
4

$$$$
>  <molecule>
CCc1cc(Nc2ncc(Cl)c(Nc3ccc4nccnc4c3N(C)S(C)(=O)=O)n2)c(OC)cc1N1CC2(C1)CN(C(C)C)C2

>  <unit_descriptor>
nM

>  <GI50>
5

$$$$

Entry CCc1cc(Nc2ncc(Cl)c(Nc3ccc4nccnc4c3N(C)S(C)(=O)=O)n2)c(OC)cc1N1CCC(N2CC3CCC2CN3C)CC1 (stereo not drawn) , GI50 reported as 25

###

measured_target: Ba/F3 EGFR L858R/C797S mutants (Homo sapiens, UniProt P00533, C797S/L858R, cells depend on it)
Sequence (P00533 whole entry C797S/L858R): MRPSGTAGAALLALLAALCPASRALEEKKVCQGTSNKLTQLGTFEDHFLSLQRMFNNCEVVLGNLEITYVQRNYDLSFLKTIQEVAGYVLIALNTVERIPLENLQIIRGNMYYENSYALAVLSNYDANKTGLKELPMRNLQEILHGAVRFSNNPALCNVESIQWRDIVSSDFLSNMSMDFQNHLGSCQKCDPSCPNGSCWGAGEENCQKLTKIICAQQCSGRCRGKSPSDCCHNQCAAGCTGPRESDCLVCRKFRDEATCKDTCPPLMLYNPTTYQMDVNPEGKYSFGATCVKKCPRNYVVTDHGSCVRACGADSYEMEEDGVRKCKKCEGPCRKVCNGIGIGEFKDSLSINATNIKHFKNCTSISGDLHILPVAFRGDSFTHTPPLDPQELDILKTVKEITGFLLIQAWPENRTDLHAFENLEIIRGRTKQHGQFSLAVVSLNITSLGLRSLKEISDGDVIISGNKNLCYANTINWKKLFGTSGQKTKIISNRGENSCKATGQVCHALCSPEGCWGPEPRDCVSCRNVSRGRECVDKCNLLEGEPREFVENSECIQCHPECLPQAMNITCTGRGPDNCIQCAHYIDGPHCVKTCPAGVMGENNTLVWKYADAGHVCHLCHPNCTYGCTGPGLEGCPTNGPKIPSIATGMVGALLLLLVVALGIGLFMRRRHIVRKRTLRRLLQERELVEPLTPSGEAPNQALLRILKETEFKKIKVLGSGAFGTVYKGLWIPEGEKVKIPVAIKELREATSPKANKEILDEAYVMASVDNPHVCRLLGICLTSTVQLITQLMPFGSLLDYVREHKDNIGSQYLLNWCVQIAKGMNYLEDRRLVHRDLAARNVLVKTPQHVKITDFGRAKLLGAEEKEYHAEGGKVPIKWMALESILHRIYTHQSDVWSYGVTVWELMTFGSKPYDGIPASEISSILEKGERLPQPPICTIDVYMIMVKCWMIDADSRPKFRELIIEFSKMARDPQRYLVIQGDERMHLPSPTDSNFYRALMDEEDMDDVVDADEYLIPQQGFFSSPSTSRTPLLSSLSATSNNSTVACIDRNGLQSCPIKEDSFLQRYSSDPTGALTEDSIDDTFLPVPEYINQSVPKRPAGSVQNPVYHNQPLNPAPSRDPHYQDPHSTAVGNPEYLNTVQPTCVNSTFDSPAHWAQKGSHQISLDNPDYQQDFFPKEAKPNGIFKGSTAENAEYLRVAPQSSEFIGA
test_protocol: CellTiter-Glo cell viability, Ba/F3 EGFR L858R/C797S cells
Format: cell-based, murine
experimental_setup: 72 hours, read-out: Ba/F3 EGFR mutant cell (IC50, nM) L/C
result_type: GI50 (nM)
Numeric only. Scale: nM

Would you please look over these solved cases?
>  <compound>
CCc1cc(Nc2ncc(Br)c(Nc3ccc4nccnc4c3N(C)S(C)(=O)=O)n2)c(OC)cc1N1CCC(N2CC3CCC2CN3C)CC1 (stereo not drawn)

>  <unit_descriptor>
nM

>  <quantitative_result>
112

$$$$
>  <compound>
CCc1cc(Nc2ncc(Cl)c(Nc3ccc4nccnc4c3N(C)S(C)(=O)=O)n2)c(OC)cc1N1CCC(N2CC3CCC2CN3C)CC1 (stereo not drawn)

>  <unit_descriptor>
nM

>  <quantitative_result>
125

$$$$
>  <compound>
COc1cc(N2CCC(N3CCN(C)CC3)CC2)c(C(F)(F)F)cc1Nc1ncc(Cl)c(Nc2ccc3nccnc3c2NS(C)(=O)=O)n1

>  <unit_descriptor>
nM

>  <quantitative_result>
246

$$$$

Please fill in: GI50 reported for COc1cc(N2CCC(N3CCCC3)CC2)c(C)cc1Nc1ncc(Cl)c(Nc2ccc3c(c2NS(C)(=O)=O)OCCO3)n1 = 43

Entry COc1cc(N2CCOCC2)c(C)cc1Nc1ncc(Br)c(Nc2ccc3nccnc3c2NS(C)(=O)=O)n1 ; GI50 = 678

COc1cc(N2CCC(N3CCN(C)CC3)CC2)c(C)cc1Nc1ncc(Br)c(Nc2ccc3nccnc3c2NS(=O)(=O)C2CC2)n1 yielded GI50 of 80
